Sourced from ChEMBL document CHEMBL5352419

Tested on: Staphylococcus aureus
Assay: Antimicrobial activity against Staphylococcus aureus ATCC29213 assessed as bacterial growth inhibition incubated for 24 hrs by Muller Hinton broth based dilution assay
Type: functional
// returns not satisfied unless MIC is strictly below 10 µg/mL, in which case satisfied

Use these answered entries as a reference point.
{"columns": ["MOLECULE", "ASSAYED_TARGET", "DISCRETE_LABEL"],
 "data": [
  ["CN[C@H](CC(C)C)C(=O)N[C@H]1C(=O)N[C@@H](CC(N)=O)C(=O)N[C@H]2C(=O)N[C@H]3C(=O)N[C@H](C(=O)N[C@H](C(=O)O)c4cc(O)cc(O)c4-c4cc3ccc4O)[C@H](O)c3ccc(c(Cl)c3)Oc3cc2cc(c3O[C@@H]2O[C@H](CO)[C@@H](O)[C@H](O)[C@H]2O[C@H]2C[C@](C)(N)[C@H](O)[C@H](C)O2)Oc2ccc(cc2Cl)[C@H]1O", "Staphylococcus aureus", "satisfied"],
  ["CCCCN1CCCc2cc(OCCCCBr)ccc21", "Staphylococcus aureus", "not satisfied"],
  ["CC(C)=CCN1CCCc2cc(OCCCCCCCCCCBr)ccc21", "Staphylococcus aureus", "satisfied"],
  ["CCCCCCCCCN1CCCc2cc(OCC(=O)OCC)ccc21", "Staphylococcus aureus", "not satisfied"],
  ["CCCCCCCN1CCCc2cc(OCCCCNC(=N)N)ccc21", "Staphylococcus aureus", "satisfied"],
  ["CC(C)=CCN1CCCc2cc(OCCCCNC(=N)N)ccc21", "Staphylococcus aureus", "satisfied"],
  ["CC(C)=CCC/C(C)=C/CN1CCCc2cc(OCCCCCCCCBr)ccc21", "Staphylococcus aureus", "satisfied"],
  ["CCCCCCCCCN1CCCc2cc(O)ccc21", "Staphylococcus aureus", "not satisfied"],
  ["CCCCCCCCCN1CCCc2cc(OCC(=O)N[C@@H](CCCNC(=N)N)C(N)=O)ccc21", "Staphylococcus aureus", "satisfied"],
  ["CCCN1CCCc2cc(OCCCCNC(=N)N)ccc21", "Staphylococcus aureus", "not satisfied"]
]}

(Q) Please indicate whether the reported MIC of "CCN(CC)CCCCOc1ccc2c(c1)CCCN2CC=C(C)C" is strictly below 10 µg/mL.
(A) not satisfied

(Q) Please indicate whether the reported MIC of "CNCCCCOc1ccc2c(c1)CCCN2CC=C(C)C" is strictly below 10 µg/mL.
(A) not satisfied

(Q) Please indicate whether the reported MIC of "CC(C)=CCN1CCCc2cc(OCCCBr)ccc21" is strictly below 10 µg/mL.
(A) not satisfied

(Q) Please indicate whether the reported MIC of "CC(C)=CCN1CCCc2cc(OCCCCNCCN(CCN)CCN)ccc21" is strictly below 10 µg/mL.
(A) not satisfied

(Q) Please indicate whether the reported MIC of "CC(C)=CCN1CCCc2cc(OCCCCCCNC(=N)N)ccc21" is strictly below 10 µg/mL.
(A) satisfied

(Q) Please indicate whether the reported MIC of "N=C(N)NCCCCOc1ccc2c(c1)CCCN2CCCC(F)(F)F" is strictly below 10 µg/mL.
(A) satisfied
